Study target: T1, HER2 immobilised on a Biacore chip (UniProt P04626 23-652, limits assumed)
T1 construct: also called immobilised HER2 target antigen (Biacore SPR); HER2 chip
Measurement description: Biacore SPR, HER2 amine-coupled to the chip
Quantity name: kon (M⁻¹ s⁻¹)
Respond with the bare value in M⁻¹ s⁻¹.

Req: # get_value(readout='kon', item= scFv (TCT1067)-MMAE-PAB-Cit-Val-dPEG9 conjugate, DAR 8.6 (scFv, MMAE-PAB-Cit-Val-dPEG9 (from compound 86) on lysine residues; DAR 9.6 by AAA, 7.5 by LC-MS, average 8.6, also called TCT1067-MMAE ADC1) scFv: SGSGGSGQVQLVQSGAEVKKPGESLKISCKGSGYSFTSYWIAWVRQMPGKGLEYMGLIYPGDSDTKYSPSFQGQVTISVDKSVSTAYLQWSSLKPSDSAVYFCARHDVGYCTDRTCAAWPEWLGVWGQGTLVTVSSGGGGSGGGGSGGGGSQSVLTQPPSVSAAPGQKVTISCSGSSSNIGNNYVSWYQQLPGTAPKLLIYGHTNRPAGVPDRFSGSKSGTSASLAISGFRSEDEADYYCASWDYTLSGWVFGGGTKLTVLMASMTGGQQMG )
Resp: 22100

Req: # get_value(readout='kon', item= scFv (TCT1067)-Acetate DAR 16 (scFv, acetyl groups (from Acetate-NHS) on lysines, N-terminal amine and further residues, 16 additions by LC-MS, also called TCT1067-acetate conjugate 2) scFv: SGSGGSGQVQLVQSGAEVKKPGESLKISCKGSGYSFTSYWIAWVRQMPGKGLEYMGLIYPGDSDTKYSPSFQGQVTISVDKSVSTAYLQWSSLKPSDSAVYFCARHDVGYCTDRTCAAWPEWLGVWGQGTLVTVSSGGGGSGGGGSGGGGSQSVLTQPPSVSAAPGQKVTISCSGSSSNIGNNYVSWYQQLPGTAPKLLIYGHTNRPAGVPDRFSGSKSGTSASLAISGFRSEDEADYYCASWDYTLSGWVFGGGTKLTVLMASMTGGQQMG )
Resp: 3.63e+06

Req: # get_value(readout='kon', item= scFv (TCT1067)-DM1-dPEG12 DAR 7 (scFv, Maytansine DM1-dPEG12 on lysine residues, 6-8 additions, average DAR 7 by LC-MS, also called TCT1067-Maytansine-PEG(12) DM1 ADC 1; compound 124) scFv: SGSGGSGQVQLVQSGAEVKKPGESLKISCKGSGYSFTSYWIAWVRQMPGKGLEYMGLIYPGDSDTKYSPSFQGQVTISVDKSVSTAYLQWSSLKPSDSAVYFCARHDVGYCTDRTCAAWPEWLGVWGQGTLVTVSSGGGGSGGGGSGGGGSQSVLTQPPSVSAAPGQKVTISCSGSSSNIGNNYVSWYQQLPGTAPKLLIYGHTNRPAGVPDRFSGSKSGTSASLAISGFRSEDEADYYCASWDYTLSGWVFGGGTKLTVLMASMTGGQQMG )
Resp: 19500
